System: HCT-15 colon
Assay: NCI tumour cell line growth inhibition, 48 h
observed.property: TGI

// solved cases for TGI follow
[[record]]
molecule = "CC1(C)C=Cc2c(cc3oc4ccc5c(c4c(=O)c3c2O)C=CC(C)(C)O5)O1"
obs_value = "> 100 µM"

[[record]]
molecule = "COc1ccc2oc(=Nc3ccccc3)c(C(N)=O)cc2c1"
obs_value = "> 100 µM"

[[record]]
molecule = "[O-]c1c[n+](CCCC[n+]2cc([O-])on2)no1"
obs_value = "> 100 µM"

[[record]]
molecule = "Cc1nc2ccccn2c1NC(=O)NNC(=S)Nc1ccc(Br)cc1"
obs_value = "> 100 µM"

[[record]]
molecule = "CC1=C(C)CC(C#N)(C#N)C(C#N)(C#N)C1"
obs_value = "> 10 µM"


Please list TGI recorded for the molecule O=C(Nc1cccc(NC(=O)C(=O)C2CCC3=C(Sc4ccccc4N3)C2=O)n1)C(=O)C1CCC2=C(Sc3ccccc3N2)C1=O (configuration not stated)
> 100 µM

Please list TGI recorded for the molecule COC(=O)C(=O)C(C(=O)C1=NS(=O)(=O)c2cc(S(N)(=O)=O)c(Cl)cc2N1)c1nc2ccc(C(=O)c3ccccc3)cc2[nH]c1=O (configuration not stated)
> 100 µM

Please list TGI recorded for the molecule `CCc1n[nH]c(=O)n1N1C(=O)CCC1=O`
> 100 µM

Please list TGI recorded for the molecule `C=CCCCn1ccc2ccccc21`
> 100 µM

Please list TGI recorded for the molecule O=c1[nH]c(=O)n(C2OC(CO)C(O)C2O)c2ncc(-c3ccc(-c4ccccc4)cc3)nc12 (configuration not stated)
> 20 µM

Please list TGI recorded for the molecule CSc1nc(NC2OCC(OC(C)=O)C(OC(C)=O)C2OC(C)=O)c(N=C(C)C(C)=O)c(=O)n1C (configuration not stated)
> 100 µM
